# Protocol text: Example D: HTL0018318 plasma pharmacokinetics
# Assay type: in vivo, human
# Details: human, plasma, 10 mg, visit day 11; read-out: Cmax, arithmetic mean ± SD
Measurement kind: Cmax
Number first, unit second.

// recorded Cmax for CCOC(=O)N1C2CCC1CC(N1CCC3(CC1)CNC(=O)C3)C2 (stereo not shown) : 69.7 ng/mL

* * *

# Protocol text: Example C: HTL0018318 plasma and urine pharmacokinetics
# Assay type: in vivo, human
# Details: human, plasma, oral, 15 mg + DPZ, 1st dose; Tau = 24 hrs; read-out: AUC0-tau (mean)
Measurement kind: AUC (ng·h/mL)
Write it as a number; the unit ng·h/mL goes unstated.

// recorded AUC for CCOC(=O)N1C2CCC1CC(N1CCC3(CC1)CNC(=O)C3)C2 (stereo not shown) : 932

* * *

# Protocol text: Example D: HTL0018318 plasma pharmacokinetics
# Format: in vivo, human
# Details: human, plasma; 5 mg, visit day 16; read-out: Ctrough, arithmetic mean ± SD
Measurement kind: concentration at 16 day (ng/mL)
Write it as a number; the unit ng/mL goes unstated.

// recorded concentration at 16 day for CCOC(=O)N1C2CCC1CC(N1CCC3(CC1)CNC(=O)C3)C2 (stereo not shown) : 14.1

* * *

# Protocol text: Example D: HTL0018318 plasma pharmacokinetics
# Format: in vivo, human
# Details: human, plasma, 15 mg, visit day 11; read-out: Cmax, arithmetic mean ± SD
Measurement kind: Cmax (ng/mL)
Write it as a number; the unit ng/mL goes unstated.

// recorded Cmax for CCOC(=O)N1C2CCC1CC(N1CCC3(CC1)CNC(=O)C3)C2 (stereo not shown) : 126

* * *

# Protocol text: Example D: HTL0018318 plasma pharmacokinetics
# Assay type: in vivo, human
# Details: human, plasma, 10 mg, visit day 28, n = 1; read-out: AUC0-4 h
Measurement kind: AUC(0-t)
Number first, unit second.

// recorded AUC(0-t) for CCOC(=O)N1C2CCC1CC(N1CCC3(CC1)CNC(=O)C3)C2 (stereo not shown) : 222 ng·h/mL

* * *

# Protocol text: Example D: HTL0018318 plasma pharmacokinetics
# Type: in vivo, human
# Details: human, plasma, 5 mg, visit day 11; read-out: AUC0-4 h, arithmetic mean ± SD
Measurement kind: AUC(0-t) (ng·h/mL)
Write it as a number; the unit ng·h/mL goes unstated.

// recorded AUC(0-t) for CCOC(=O)N1C2CCC1CC(N1CCC3(CC1)CNC(=O)C3)C2 (stereo not shown) [HTL0018318] : 149

* * *

# Protocol text: Example D: HTL0018318 plasma pharmacokinetics
# Assay type: in vivo, human
# Details: human, plasma, 25 mg, visit day 16; read-out: Cmax, arithmetic mean ± SD
Measurement kind: Cmax (ng/mL)
Write it as a number; the unit ng/mL goes unstated.

// recorded Cmax for CCOC(=O)N1C2CCC1CC(N1CCC3(CC1)CNC(=O)C3)C2 (stereo not shown) : 243

* * *

# Protocol text: Example C: HTL0018318 plasma and urine pharmacokinetics
# Format: in vivo, human
# Details: human, plasma, oral, 15 mg, 15 mg only, 1st dose; read-out: AUC0-inf (mean)
Measurement kind: AUC(0-inf) (ng·h/mL)
Write it as a number; the unit ng·h/mL goes unstated.

// recorded AUC(0-inf) for CCOC(=O)N1C2CCC1CC(N1CCC3(CC1)CNC(=O)C3)C2 (stereo not shown) : 1130
